Assay: Plasma pharmacokinetics of esomeprazole and esomeprazole sulfone in goats after IV and SC administration (HPLC, non-compartmental analysis)
Conditions: both, pygmy and pygmy-cross, plasma, sc, 2 mg/kg, T1/2 (λz) elimination half-life, goats, 2 mg/kg SC (SQ) single dose, median, n = 5
Measurement Name: half-life (min)
All answers are understood in min, so give the number only.

# half-life lookup, item COc1ccc2nc([S@@+]([O-])Cc3ncc(C)c(OC)c3C)[nH]c2c1 26.8

###

Test: Plasma pharmacokinetics of esomeprazole and esomeprazole sulfone in goats after IV and SC administration (HPLC, non-compartmental analysis)
Conditions: goats, 1 mg/kg IV single dose, plasma, geomean, n = 5
Measurement Name: AUMCinf (min²·µg/mL)
All answers are understood in min²·µg/mL, so give the number only.

# AUMCinf lookup, item COc1ccc2nc([S@@+]([O-])Cc3ncc(C)c(OC)c3C)[nH]c2c1 244

###

Experiment: Plasma pharmacokinetics of esomeprazole and esomeprazole sulfone in goats after IV and SC administration (HPLC, non-compartmental analysis)
Details: goats, 1 mg/kg IV single dose, plasma, median, n = 5
Measurement Name: AUClast

# AUClast lookup, item COc1ccc2nc([S@@+]([O-])Cc3ncc(C)c(OC)c3C)[nH]c2c1 394 ng·h/mL

###

Assay: Plasma pharmacokinetics of esomeprazole and esomeprazole sulfone in goats after IV and SC administration (HPLC, non-compartmental analysis)
Conditions: goats, 2 mg/kg SC (SQ) single dose, plasma, geomean, n = 5
Measurement Name: AUMCinf
Number first, unit second.

# AUMCinf lookup, item COc1ccc2nc([S@@+]([O-])Cc3ncc(C)c(OC)c3C)[nH]c2c1 3200 min²·µg/mL

###

Assay: Plasma pharmacokinetics of esomeprazole and esomeprazole sulfone in goats after IV and SC administration (HPLC, non-compartmental analysis)
Conditions: both, pygmy and pygmy-cross, plasma, sc, 2 mg/kg, T1/2 (λz) elimination half-life, goats, 2 mg/kg SC (SQ) single dose, geomean, n = 5
Measurement Name: half-life (min)
All answers are understood in min, so give the number only.

# half-life lookup, item COc1ccc2nc([S@@+]([O-])Cc3ncc(C)c(OC)c3C)[nH]c2c1 29

###

Assay: Plasma pharmacokinetics of esomeprazole and esomeprazole sulfone in goats after IV and SC administration (HPLC, non-compartmental analysis)
Settings: both, pygmy and pygmy-cross, plasma, sc, 2 mg/kg, F (bioavailability), Goat, 2 mg/kg SC vs 1 mg/kg IV; AUCSC/AUCIV x DoseIV/DoseSC
Measurement Name: bioavailability

# bioavailability lookup, item COc1ccc2nc([S@@+]([O-])Cc3ncc(C)c(OC)c3C)[nH]c2c1 [Esomeprazole, esomeprazole] > 100%

###

Assay: Plasma pharmacokinetics of esomeprazole and esomeprazole sulfone in goats after IV and SC administration (HPLC, non-compartmental analysis)
Settings: both, pygmy and pygmy-cross, plasma, iv, 1 mg/kg, Cl, Goat, 1 mg/kg IV (Table 3 comparison)
Measurement Name: clearance (mL/min/kg)
All answers are understood in mL/min/kg, so give the number only.

# clearance lookup, item COc1ccc2nc([S@@+]([O-])Cc3ncc(C)c(OC)c3C)[nH]c2c1 25

###

Test: Plasma pharmacokinetics of esomeprazole and esomeprazole sulfone in goats after IV and SC administration (HPLC, non-compartmental analysis)
Conditions: both, pygmy and pygmy-cross, plasma, sc, 2 mg/kg, λz, goats, 2 mg/kg SC (SQ) single dose, geomean, n = 5
Measurement Name: k el
Number first, unit second.

# k el lookup, item COc1ccc2nc([S@@+]([O-])Cc3ncc(C)c(OC)c3C)[nH]c2c1 0.0004 s⁻¹
